Just for reference, the OligoGym collection is where these values come from.

target: Mmp7 (rat); assay: reporter assay of Huesken 2005; conditions: siRNA; also: test concentration or dose not given here
Oligonucleotides are given in HELM: sugar(base)linkage, 5' to 3'; d 2'-deoxyribose, r ribose, m 2'-O-methylribose, p phosphate. ss, as = sense and antisense strand
ENDPOINT_LABEL: normalised inhibition (eCFP-eYFP dual reporter) (%)

{"SUBSTANCE": "RNA1{r(G)p.r(G)p.r(G)p.r(A)p.r(G)p.r(A)p.r(U)p.r(C)p.r(A)p.r(C)p.r(G)p.r(G)p.r(A)p.r(G)p.r(A)p.r(C)p.r(A)p.r(A)p.r(C)p.d(T)p.d(T)}|RNA2{r(G)p.r(U)p.r(U)p.r(G)p.r(U)p.r(C)p.r(U)p.r(C)p.r(C)p.r(G)p.r(U)p.r(G)p.r(A)p.r(U)p.r(C)p.r(U)p.r(C)p.r(C)p.r(C)p.d(C)p.d(T)}$$$RNA1{StrandType:ss}|RNA2{StrandType:as}$", "TESTED_TARGET": "Mmp7 (rat)", "QUANTITATIVE_RESULT": 94.2}
{"SUBSTANCE": "RNA1{r(G)p.r(A)p.r(G)p.r(G)p.r(G)p.r(A)p.r(A)p.r(A)p.r(U)p.r(G)p.r(C)p.r(A)p.r(G)p.r(A)p.r(A)p.r(G)p.r(U)p.r(U)p.r(C)p.d(T)p.d(T)}|RNA2{r(G)p.r(A)p.r(A)p.r(C)p.r(U)p.r(U)p.r(C)p.r(U)p.r(G)p.r(C)p.r(A)p.r(U)p.r(U)p.r(U)p.r(C)p.r(C)p.r(C)p.r(U)p.r(C)p.d(A)p.d(G)}$$$RNA1{StrandType:ss}|RNA2{StrandType:as}$", "TESTED_TARGET": "Mmp7 (rat)", "QUANTITATIVE_RESULT": 97.5}
{"SUBSTANCE": "RNA1{r(C)p.r(U)p.r(A)p.r(C)p.r(C)p.r(U)p.r(A)p.r(U)p.r(C)p.r(A)p.r(A)p.r(G)p.r(G)p.r(A)p.r(G)p.r(A)p.r(U)p.r(C)p.r(A)p.d(T)p.d(T)}|RNA2{r(U)p.r(G)p.r(A)p.r(U)p.r(C)p.r(U)p.r(C)p.r(C)p.r(U)p.r(U)p.r(G)p.r(A)p.r(U)p.r(A)p.r(G)p.r(G)p.r(U)p.r(A)p.r(G)p.d(G)p.d(G)}$$$RNA1{StrandType:ss}|RNA2{StrandType:as}$", "TESTED_TARGET": "Mmp7 (rat)", "QUANTITATIVE_RESULT": 114}
{"SUBSTANCE": "RNA1{r(C)p.r(C)p.r(C)p.r(A)p.r(G)p.r(G)p.r(U)p.r(G)p.r(U)p.r(G)p.r(G)p.r(A)p.r(G)p.r(U)p.r(G)p.r(C)p.r(C)p.r(A)p.r(G)p.d(T)p.d(T)}|RNA2{r(C)p.r(U)p.r(G)p.r(G)p.r(C)p.r(A)p.r(C)p.r(U)p.r(C)p.r(C)p.r(A)p.r(C)p.r(A)p.r(C)p.r(C)p.r(U)p.r(G)p.r(G)p.r(G)p.d(C)p.d(T)}$$$RNA1{StrandType:ss}|RNA2{StrandType:as}$", "TESTED_TARGET": "Mmp7 (rat)", "QUANTITATIVE_RESULT": 60.7}
{"SUBSTANCE": "RNA1{r(G)p.r(A)p.r(A)p.r(G)p.r(C)p.r(C)p.r(C)p.r(A)p.r(G)p.r(G)p.r(U)p.r(G)p.r(U)p.r(G)p.r(G)p.r(A)p.r(G)p.r(U)p.r(G)p.d(T)p.d(T)}|RNA2{r(C)p.r(A)p.r(C)p.r(U)p.r(C)p.r(C)p.r(A)p.r(C)p.r(A)p.r(C)p.r(C)p.r(U)p.r(G)p.r(G)p.r(G)p.r(C)p.r(U)p.r(U)p.r(C)p.d(T)p.d(G)}$$$RNA1{StrandType:ss}|RNA2{StrandType:as}$", "TESTED_TARGET": "Mmp7 (rat)", "QUANTITATIVE_RESULT": 94}
{"SUBSTANCE": "RNA1{r(G)p.r(A)p.r(C)p.r(U)p.r(U)p.r(C)p.r(A)p.r(G)p.r(U)p.r(C)p.r(U)p.r(U)p.r(A)p.r(C)p.r(A)p.r(A)p.r(A)p.r(G)p.r(G)p.d(T)p.d(T)}|RNA2{r(C)p.r(C)p.r(U)p.r(U)p.r(U)p.r(G)p.r(U)p.r(A)p.r(A)p.r(G)p.r(A)p.r(C)p.r(U)p.r(G)p.r(A)p.r(A)p.r(G)p.r(U)p.r(C)p.d(T)p.d(T)}$$$RNA1{StrandType:ss}|RNA2{StrandType:as}$", "TESTED_TARGET": "Mmp7 (rat)", "QUANTITATIVE_RESULT": 92.9}
{"SUBSTANCE": "RNA1{r(G)p.r(C)p.r(U)p.r(G)p.r(C)p.r(C)p.r(U)p.r(G)p.r(G)p.r(C)p.r(C)p.r(C)p.r(U)p.r(G)p.r(C)p.r(C)p.r(A)p.r(C)p.r(U)p.d(T)p.d(T)}|RNA2{r(A)p.r(G)p.r(U)p.r(G)p.r(G)p.r(C)p.r(A)p.r(G)p.r(G)p.r(G)p.r(C)p.r(C)p.r(A)p.r(G)p.r(G)p.r(C)p.r(A)p.r(G)p.r(C)p.d(C)p.d(T)}$$$RNA1{StrandType:ss}|RNA2{StrandType:as}$", "TESTED_TARGET": "Mmp7 (rat)", "QUANTITATIVE_RESULT": 64.3}
{"SUBSTANCE": "RNA1{r(U)p.r(G)p.r(U)p.r(G)p.r(A)p.r(U)p.r(G)p.r(U)p.r(A)p.r(C)p.r(C)p.r(C)p.r(U)p.r(A)p.r(C)p.r(C)p.r(U)p.r(A)p.r(U)p.d(T)p.d(T)}|RNA2{r(A)p.r(U)p.r(A)p.r(G)p.r(G)p.r(U)p.r(A)p.r(G)p.r(G)p.r(G)p.r(U)p.r(A)p.r(C)p.r(A)p.r(U)p.r(C)p.r(A)p.r(C)p.r(A)p.d(G)p.d(A)}$$$RNA1{StrandType:ss}|RNA2{StrandType:as}$", "TESTED_TARGET": "Mmp7 (rat)", "QUANTITATIVE_RESULT": 107}
{"SUBSTANCE": "RNA1{r(C)p.r(C)p.r(U)p.r(C)p.r(G)p.r(G)p.r(C)p.r(G)p.r(G)p.r(A)p.r(G)p.r(A)p.r(U)p.r(G)p.r(C)p.r(U)p.r(C)p.r(A)p.r(C)p.d(T)p.d(T)}|RNA2{r(G)p.r(U)p.r(G)p.r(A)p.r(G)p.r(C)p.r(A)p.r(U)p.r(C)p.r(U)p.r(C)p.r(C)p.r(G)p.r(C)p.r(C)p.r(G)p.r(A)p.r(G)p.r(G)p.d(C)p.d(C)}$$$RNA1{StrandType:ss}|RNA2{StrandType:as}$", "TESTED_TARGET": "Mmp7 (rat)", "QUANTITATIVE_RESULT": 72.1}
{"SUBSTANCE": "RNA1{r(G)p.r(U)p.r(C)p.r(C)p.r(U)p.r(A)p.r(A)p.r(G)p.r(U)p.r(G)p.r(G)p.r(C)p.r(A)p.r(U)p.r(U)p.r(C)p.r(C)p.r(A)p.r(G)p.d(T)p.d(T)}|RNA2{r(C)p.r(U)p.r(G)p.r(G)p.r(A)p.r(A)p.r(U)p.r(G)p.r(C)p.r(C)p.r(A)p.r(C)p.r(U)p.r(U)p.r(A)p.r(G)p.r(G)p.r(A)p.r(C)p.d(T)p.d(G)}$$$RNA1{StrandType:ss}|RNA2{StrandType:as}$", "TESTED_TARGET": "Mmp7 (rat)", "QUANTITATIVE_RESULT": 110}
